Study System: T1, His9G-tagged cynomolgus CD27 recombinant protein (cynomolgus, limits assumed)
T1 construct: In-house, transient transfection of HEK293 cells; also called Cyno CD27/His
T1 chain: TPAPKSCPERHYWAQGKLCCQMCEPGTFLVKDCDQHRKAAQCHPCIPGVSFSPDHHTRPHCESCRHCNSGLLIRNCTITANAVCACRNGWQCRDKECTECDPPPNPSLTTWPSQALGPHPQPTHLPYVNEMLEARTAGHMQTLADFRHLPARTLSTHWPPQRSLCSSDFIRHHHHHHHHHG
Assay Notes: SPR Biacore 4000, antibody captured on anti-human Fc, His9G-tagged CD27 injected, 1:1 fit;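 note: Double-referenced SPR (blank anti-Fc surface and buffer injection subtracted), KD derived from association and dissociation rate constants, with human and cynomolgus CD27 as analytes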
// values below are reported Kd
Property: Kd

Binder | Value Observed
hCD27.131A VH7VL6 huIgG1 (antibody, V domains shown) VH: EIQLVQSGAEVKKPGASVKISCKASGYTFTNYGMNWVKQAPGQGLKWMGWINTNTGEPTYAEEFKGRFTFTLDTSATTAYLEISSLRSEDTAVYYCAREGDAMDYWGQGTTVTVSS VL: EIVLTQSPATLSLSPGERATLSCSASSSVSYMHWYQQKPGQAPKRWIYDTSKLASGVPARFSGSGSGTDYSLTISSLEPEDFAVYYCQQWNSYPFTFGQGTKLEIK | 34.8 nM
hCD27.131A VH6VL7 huIgG1 (antibody, V domains shown) VH: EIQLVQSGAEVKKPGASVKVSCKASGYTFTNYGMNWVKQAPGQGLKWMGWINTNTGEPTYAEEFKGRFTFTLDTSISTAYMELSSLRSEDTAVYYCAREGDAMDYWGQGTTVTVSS VL: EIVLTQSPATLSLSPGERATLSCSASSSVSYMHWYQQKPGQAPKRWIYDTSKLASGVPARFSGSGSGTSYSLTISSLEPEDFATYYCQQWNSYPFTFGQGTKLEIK | 41.9 nM

The origin of these recorded values is patent US20180086841A1.
